Origin of measurements: ChEMBL document CHEMBL4257553

- experimental.details: Cytotoxicity against mouse L929 cells assessed as cell viability up to 128 ug/ml after 48 hrs by MTT assay relative to control
- Type: cell-based
- settings: read-out: Activity
quantity.name: viability at 48 h

What viability at 48 h value was documented for this compound, CCCCCn1c(CCCC)nc(Cl)c1C(Nc1ncccn1)P(=O)(OCC)OCC (stereo unspecified) ? ≤ 80%

###

- System: Staphylococcus aureus
- experimental.details: Antibacterial activity against Staphylococcus aureus ATCC 29213 after 24 hrs by microbroth dilution method
- Assay type: functional
- settings: ATCC 29213, 24 h
quantity.name: MIC (µg/mL)
Record the value in µg/mL, omitting the unit from your answer.

What MIC value was documented for this molecule, CCOP(=O)(OCC)C(Nc1ncccn1)c1ccc2c(c1)c1cc(C=O)ccc1n2CC (configuration not stated) ? 256

What MIC value was documented for this molecule, Cc1ccc(C(Nc2ncccn2)P(=O)(O)O)cc1 (configuration not stated) ? 256

What MIC value was documented for this molecule, CCCCCn1c(CCCC)nc(Cl)c1C(Nc1ncccn1)P(=O)(OCC)OCC (configuration not stated) ? 64
